study-target: HIV-1 Env of pseudovirus Du172.17 (HIV-1)
procedure-text: cell-based or functional assay
neutralization IC80 values, listed per item
Answer with a number only, understood to be in µg/mL.

Answered examples (4):
binder	neutralization IC80, µg/mL
MS-85 (antibody, V domains shown) VH: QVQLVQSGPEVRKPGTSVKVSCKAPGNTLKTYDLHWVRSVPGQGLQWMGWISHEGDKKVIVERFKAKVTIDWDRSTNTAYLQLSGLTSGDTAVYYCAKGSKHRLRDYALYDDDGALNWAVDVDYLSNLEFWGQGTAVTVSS VL: DIVLTQSPHSLSVTPGESASISCKSSHSLIHGDRNNYLAWYVQKPGRSPQLLIYLASSRASGVPDRFSGSGSGTDFTLKISRVETEDVGTYYCMQGRESPWTFGQGTKVDIKR	9.53
MS-82 (antibody, V domains shown) VH: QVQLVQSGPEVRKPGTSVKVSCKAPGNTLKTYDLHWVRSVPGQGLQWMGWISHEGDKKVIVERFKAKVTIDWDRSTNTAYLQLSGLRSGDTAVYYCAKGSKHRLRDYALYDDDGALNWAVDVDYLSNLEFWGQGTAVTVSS VL: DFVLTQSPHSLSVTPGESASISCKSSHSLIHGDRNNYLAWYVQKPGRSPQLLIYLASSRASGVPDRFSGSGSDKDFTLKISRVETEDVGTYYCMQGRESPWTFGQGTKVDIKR	7
MS-78 (antibody, V domains shown) VH: QVQLVQSGPEVRKPGTSVKVSCKAPGNTLKTYDLHWVRSVPGQGLEWMGWISHEGDKKVIVERFKAKVTIDWDRSTNTAYLQLSGLTSGDTAVYYCAKGSKHRLRDYALYDDDGALNWAVDVDYLSNLEFWGQGTAVTVSS VL: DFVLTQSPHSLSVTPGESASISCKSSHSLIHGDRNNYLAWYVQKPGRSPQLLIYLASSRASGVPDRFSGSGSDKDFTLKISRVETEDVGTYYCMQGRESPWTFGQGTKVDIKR	7
MS-75 (antibody, V domains shown) VH: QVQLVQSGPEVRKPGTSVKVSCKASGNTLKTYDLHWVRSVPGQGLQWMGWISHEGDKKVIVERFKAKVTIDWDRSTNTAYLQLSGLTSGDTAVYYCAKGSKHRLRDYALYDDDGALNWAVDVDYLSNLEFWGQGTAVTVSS VL: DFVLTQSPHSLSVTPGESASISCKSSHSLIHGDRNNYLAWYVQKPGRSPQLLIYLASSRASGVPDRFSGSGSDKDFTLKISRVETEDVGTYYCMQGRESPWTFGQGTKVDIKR	16.1

Okay, now this binder:
-- ask Look up neutralization IC80 for this binder: MS-74 (antibody, V domains shown) VH: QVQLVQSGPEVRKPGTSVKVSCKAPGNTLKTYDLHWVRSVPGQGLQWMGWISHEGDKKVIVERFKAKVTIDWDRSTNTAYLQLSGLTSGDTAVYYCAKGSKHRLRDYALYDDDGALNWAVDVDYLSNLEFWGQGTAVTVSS VL: DFVLTQSPHSLSVTPGESASISCKSSHSLIHGDRNNYLAWYVQKPGRSPQLLIYLASSRASGVPDRFSGSGSDKDFTLKISRVETEDVGVYYCMQGRESPWTFGQGTKVDIKR
-- reply 5.57
